Target: HLA-A*02:01 (Homo sapiens, UniProt P04439, D140Y/D185E/D98H/E176V/E277Q/G131W/G231S/I119V/I121R/I166T/I218V/L300P/L318F/N151K/N90K/P208A/P217A/Q86G/Q94H/R138H/R169H/T345S)
Assay: MHC binding assay (UV-ligand exchange, β2m ELISA, peptide exchange yield)
Conditions: MHC class I binding score; binding to HLA-A*02:01 ranged by peptide exchange yield (UV-ligand exchange, β2m ELISA)
Quantity: Peptide exchange

Some solved entries appear below for comparison.
{"Substance": "233 (VLSETLYEL; listed as Homo sapiens) [compound 233]", "Quantity": "Peptide exchange", "Endpoint result": "“++” (≧20% = ++)"}
{"Substance": "91 (IMQDFPAEIFL; listed as Homo sapiens) [compound 91]", "Quantity": "Peptide exchange", "Endpoint result": "“++++” (≧75% = ++++)"}
{"Substance": "216 (NLWEDPYYL; listed as Homo sapiens) [compound 216]", "Quantity": "Peptide exchange", "Endpoint result": "“+++” (≧50 = +++)"}
{"Substance": "524 (ALIENLTHQI; listed as Homo sapiens) [compound 524]", "Quantity": "Peptide exchange", "Endpoint result": "“++” (≧20% = ++)"}
{"Substance": "538 (LLLAHIIAL; listed as Homo sapiens) [compound 538]", "Quantity": "Peptide exchange", "Endpoint result": "“++” (≧20% = ++)"}

Item: 531 (YTLPIASSIRL; listed as Homo sapiens) [compound 531] | Peptide exchange: “+++” (≧50 = +++)

Query 589 (KLYPQLPAEI; listed as Homo sapiens) [compound 589] yields Peptide exchange of “+++” (≧50 = +++)

Peptide exchange reported for this substance 348 (ILLDVKTRL; listed as Homo sapiens) [compound 348] : “++++” (≧75% = ++++)

9 (GAAKDLPGV; listed as Homo sapiens) [compound 9] yielded Peptide exchange of “++” (≧20% = ++)

###

Biological target: HLA-A*02:01 (Homo sapiens, UniProt P04439, D140Y/D185E/D98H/E176V/E277Q/G131W/G231S/I119V/I121R/I166T/I218V/L300P/L318F/N151K/N90K/P208A/P217A/Q86G/Q94H/R138H/R169H/T345S)
Experiment: MHC binding assay (UV-ligand exchange, β2m ELISA, peptide exchange yield)
Settings: MHC class I binding score; binding to HLA-A*02:01 ranged by peptide exchange yield (UV-ligand exchange, β2m ELISA)
Quantity: Peptide exchange

{"Substance": "30 (LILDWVPYI; listed as Homo sapiens) [compound 30]", "Peptide exchange": "“+++” (≧50 = +++)"}
{"Substance": "379 (IMEGTLTRV; listed as Homo sapiens) [compound 379]", "Peptide exchange": "“++” (≧20% = ++)"}
{"Substance": "547 (TLDITPHTV; listed as Homo sapiens) [compound 547]", "Peptide exchange": "“+++” (≧50 = +++)"}
{"Substance": "555 (YVLEGLKSV; listed as Homo sapiens) [compound 555]", "Peptide exchange": "“+++” (≧50 = +++)"}
{"Substance": "295 (VLDRESPNV; listed as Homo sapiens) [compound 295]", "Peptide exchange": "“+++” (≧50 = +++)"}
{"Substance": "164 (ALLPQPKNLTV; listed as Homo sapiens) [compound 164]", "Peptide exchange": "“+++” (≧50 = +++)"}
{"Substance": "574 (YLLQEPPRTV; listed as Homo sapiens) [compound 574]", "Peptide exchange": "“++” (≧20% = ++)"}
{"Substance": "444 (GLLRDEALAEV; listed as Homo sapiens) [compound 444]", "Peptide exchange": "“+++” (≧50 = +++)"}
{"Substance": "234 (ALMEDTGRQML; listed as Homo sapiens) [compound 234]", "Peptide exchange": "“++” (≧20% = ++)"}

# Peptide exchange (substance: 541 (SMLEPVPEL; listed as Homo sapiens) [compound 541] ) is “+++” (≧50 = +++)
